Molecular target: CyclinA2/CDK2 (Homo sapiens)
Construct: purchased CRELUX Protein Services
Assay: Fluorescence Polarization (FP) competitive binding assay, Cyclin A2/Cdk2;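 note: plates equilibrated two hours at room temperature before polarization reading, IC50 fitted from eight-concentration compound titration curves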
Conditions: 8 nM Cyclin A2/Cdk2, 2 nM FAM probe; average of 2-3 independent experiments; read-out: Cyclin A FP IC50
pIC50: −log10 of the molar value. *1 amine or outer side, *2 acyl side, *3 side chain or, on linkers, in order; H or OH if unused. Where a SMILES comes first, the peptide text is derived from it. Bridges are numbered along the chain shown (N, C = ends). [ ]: non-standard residue; d: D form. The star is where a group is joined. X121 = C[C@@H]1CN(c2ccc(-c3ccc(Cl)cc3C[C@@H](C(=O)[*:2])N(C)[*:1])cc2)CCO1; X56 = CN1CCc2cc(-c3ccc(Cl)cc3C[C@@H](C(=O)[*:2])N(C)[*:1])ccc2C1; NMehhhLys(Me) = CN([C@@H](CCCCCCCN(C)[*:3])C(=O)[*:2])[*:1]; NMe(hhhLys) = CN([C@@H](CCCCCCCN[*:3])C(=O)[*:2])[*:1]; cBuCO(3,3-F2-1-CF3) = O=C(C1(C(F)(F)F)CC(F)(F)C1)*; NMePhe(2,5-Cl2) = CN[C@@H](Cc1cc(Cl)ccc1Cl)C(=O)O; Pro(trans-4-F) = O=C(O)[C@@H]1C[C@@H](F)CN1; Gly(cPr) = N[C@H](C(=O)O)C1CC1
measured_quantity: pIC50

[
  {
    "compound": "CC(C)C[C@@H]1NC(=O)[C@@H](N(C)C(=O)[C@@H](NC(=O)[C@@H]2C[C@@H](F)CN2C(=O)C2(C(F)(F)F)CC(F)(F)C2)C2CC2)CCCCCCCN(C)C(=O)[C@H](Cc2cc(Cl)ccc2-c2ccc(N3CCO[C@H](C)C3)cc2)N(C)C1=O [Example 414] ({cBuCO(3,3-F2-1-CF3)}-[Pro(trans-4-F)][Gly(cPr)][NMehhhLys(Me)]L[X121]; lactam 3-C)",
    "assay_value": 7.52
  },
  {
    "compound": "CC(C)C[C@@H]1NC(=O)[C@@H](N(C)C(=O)[C@@H](NC(=O)[C@@H]2C[C@@H](F)CN2C(=O)C2(C(F)(F)F)CC(F)(F)C2)C2CC2)CCCCCCCN(C)C(=O)[C@H](Cc2cc(Cl)ccc2-c2ccc3c(c2)CCN(C)C3)N(C)C1=O [Example 407] ({cBuCO(3,3-F2-1-CF3)}-[Pro(trans-4-F)][Gly(cPr)][NMehhhLys(Me)]L[X56]; lactam 3-C)",
    "assay_value": 7.70
  },
  {
    "compound": "CC(C)C[C@@H]1NC(=O)[C@@H](N(C)C(=O)[C@H](C)NC(=O)[C@@H]2C[C@@H](F)CN2C(=O)C2(C(F)(F)F)CC(F)(F)C2)CCCCCCCNC(=O)[C@H](Cc2cc(Cl)ccc2Cl)N(C)C1=O [Example 55] ({cBuCO(3,3-F2-1-CF3)}-[Pro(trans-4-F)]A[NMe(hhhLys)]L[NMePhe(2,5-Cl2)]; lactam 3-C)",
    "assay_value": 6.15
  }
]

---

Catalogue of GI50 values
System: NCI-H1048 cells
Experiment: MTT proliferation assay, NCI-H1048;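 note: Dose-response in 96-well plates over 8 or 10 concentration points, with exposure spanning 3-4 cell doublings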
Assay type: cell-based
Conditions: 5 days compound exposure, 1:3 serial dilution starting at 10 μM
*1 amine or outer side, *2 acyl side, *3 side chain or, on linkers, in order; H or OH if unused. Where a SMILES comes first, the peptide text is derived from it. Bridges are numbered along the chain shown (N, C = ends). [ ]: non-standard residue; d: D form. The star is where a group is joined. X171 = CC(=O)N1CC=C(c2ncc(Cl)cc2C[C@@H](C(=O)[*:2])N(C)[*:1])CC1; NMehhhLys(Me) = CN([C@@H](CCCCCCCN(C)[*:3])C(=O)[*:2])[*:1]; X180 = CN([C@@H](Cc1cc(F)ccc1-c1cnn2c1CCC2)C(=O)[*:2])[*:1]; X64 = CN([C@@H](Cc1cc(Cl)ccc1OC1(C)CC1)C(=O)[*:2])[*:1]; NMe(hhhLys) = CN([C@@H](CCCCCCCN[*:3])C(=O)[*:2])[*:1]; cBuCO(3,3-F2-1-CF3) = O=C(C1(C(F)(F)F)CC(F)(F)C1)*; Pro(trans-4-F) = O=C(O)[C@@H]1C[C@@H](F)CN1; Gly(cPr) = N[C@H](C(=O)O)C1CC1

[
  {
    "compound": "CC(=O)N1C2CCC1CC(c1ccc(F)cc1C[C@H]1C(=O)N(C)CCCCCCC[C@H](N(C)C(=O)[C@@H](NC(=O)[C@@H]3C[C@@H](F)CN3C(=O)C3(C(F)(F)F)CC(F)(F)C3)C3CC3)C(=O)N[C@@H](CC(C)C)C(=O)N1C)C2 (single isomer, unassigned) [Example 59-P1]",
    "experimental_system": "NCI-H1048 cells",
    "GI50 (µM)": 0.02
  },
  {
    "compound": "CC(C)C[C@@H]1NC(=O)[C@@H](N(C)C(=O)[C@@H](NC(=O)[C@@H]2C[C@@H](F)CN2C(=O)C2(C(F)(F)F)CC(F)(F)C2)C2CC2)CCCCCCCN(C)C(=O)[C@H](Cc2cc(Cl)ccc2OC2(C)CC2)N(C)C1=O [Example 259] ({cBuCO(3,3-F2-1-CF3)}-[Pro(trans-4-F)][Gly(cPr)][NMehhhLys(Me)]L[X64]; lactam 3-C)",
    "experimental_system": "NCI-H1048 cells",
    "GI50 (µM)": 0.11
  },
  {
    "compound": "CC(C)C[C@@H]1NC(=O)[C@@H](N(C)C(=O)[C@@H](NC(=O)[C@@H]2C[C@@H](F)CN2C(=O)C2(C(F)(F)F)CC(F)(F)C2)C2CC2)CCCCCCN(C)C(=O)[C@H](Cc2cc(Cl)ccc2-c2cnn(C)c2)N(C)C1=O",
    "experimental_system": "NCI-H1048 cells",
    "GI50 (µM)": 0.04
  },
  {
    "compound": "CC(C)C[C@@H]1NC(=O)[C@@H](N(C)C(=O)[C@@H](NC(=O)[C@@H]2C[C@@H](F)CN2C(=O)C2(C(F)(F)F)CC(F)(F)C2)C2CC2)CC=CCCCCNC(=O)[C@H](Cc2cc(Cl)ccc2Oc2ncccn2)N(C)C1=O",
    "experimental_system": "NCI-H1048 cells",
    "GI50 (µM)": 0.5
  },
  {
    "compound": "CC(C)C[C@@H]1NC(=O)[C@@H](N(C)C(=O)[C@@H](NC(=O)[C@@H]2N[C@@H](F)CC2C(=O)C2(C(F)(F)F)CC(F)(F)C2)C2CC2)CC=CCCCCN(C)C(=O)[C@H](Cc2cc(Cl)cnc2OC(C)C)N(C)C1=O (stereo partly shown)",
    "experimental_system": "NCI-H1048 cells",
    "GI50 (µM)": 0.7
  },
  {
    "compound": "CC(C)C[C@@H]1NC(=O)[C@@H](N(C)C(=O)[C@@H](NC(=O)[C@@H]2C[C@@H](F)CN2C(=O)C2(C(F)(F)F)CC(F)(F)C2)C2CC2)CCCCCCCN(C)C(=O)[C@H](Cc2cc(F)ccc2-c2cnn3c2CCC3)N(C)C1=O [Example 148] ({cBuCO(3,3-F2-1-CF3)}-[Pro(trans-4-F)][Gly(cPr)][NMehhhLys(Me)]L[X180]; lactam 3-C)",
    "experimental_system": "NCI-H1048 cells",
    "GI50 (µM)": 0.01
  },
  {
    "compound": "CC(=O)N1CC=C(c2ncc(Cl)cc2C[C@H]2C(=O)NCCCCCCC[C@H](N(C)C(=O)[C@@H](NC(=O)[C@@H]3C[C@@H](F)CN3C(=O)C3(C(F)(F)F)CC(F)(F)C3)C3CC3)C(=O)N[C@@H](CC(C)C)C(=O)N2C)CC1 [Example 302] ({cBuCO(3,3-F2-1-CF3)}-[Pro(trans-4-F)][Gly(cPr)][NMe(hhhLys)]L[X171]; lactam 3-C)",
    "experimental_system": "NCI-H1048 cells",
    "GI50 (µM)": 0.14
  }
]
